# Tested system: AAV9 capsid (adeno-associated virus serotype 9 (AAV9), UniProt Q6JC40)
# Test summary: cryo-EM structure
Experimental endpoint: binding result

Record excerpt, results attached:
Binder	binding result
Fab3-2 (Fab, V domains shown) VH: EVQLLESGGGLVQPGGSLRLSCAASGFTFSNYAMSWVRQAPGKGLEWVSLISGSGGSIDYADSVKGRFTISRDNSKNTLYLQMDSLRAEDTAVYYCSKDPIYYDLSGYYAGRIYYFDYWGQGTLVTVSS VL: EIVMTQSPATLSVSPGDTATLSCRASHSVSRDLAWYQQKPGQAPRLLIYDASTRATGIPARFSGSGSGTEFTLTISSLQSEDFAVYYCQQYINWVTFGPGTKVDIE	binds
Fab2-2 (Fab, V domains shown) VH: QVQLQESGPGLVKPSVTLSLTCTVSGDSISTYYWSWVRQPPGKGLEWIGYIYYSGNTNYNPSLKSRVTMSVDTSKNQFSLKLNSVTAADTAVYYCARTHHDYGDYRPSYYFDYWGQGTLVTVSS VL: QSALTQPASVSGSPGQSITISCTGTSSDVGAYDYVSWYQQHPGKAPKLMIYDVSNRPSSGVSNRFSGSKSGNTASLTISGLQAEDEADYYCSSYTSSSTVILGGGTKLTVL	binds
Fab2-5 (Fab, V domains shown) VH: EVQLVESGGGLVKPGGSPRLSCAASGFNFGSYSMNWVRQAPGKGLEWVSSISSSSSYIYYADSVKGRFTISRDNAKHSLYLQVNSLRAEDTAVYYCARDPTTYGYNSAWDKKGWYFDLWGRGTLLTVS VL: VLTQPPSVSAAPGQMVTISCSGSSSNIGNDYISWYQQLPGTAPKLLIYDNNERPSGIPDRFSGSKSGTSATLGITGVQTGDEADYYCGTWDSSLSAWVFGEGTKLTVV	binds
Fab2-4 (Fab, V domains shown) VH: EVQLLESGGGLVHPGGSLRLSCAASGFPFSNFAMSWVRQAPGKGLEWVSTISGSSGSTYYADSVRGRFTISRDYSKNTVYLEMNSLRADDTAIYYCAKDRMITFGEVIVKHYDAFEIWGQGTRVAV VL: DIQMTQSPSSLSASVGDRVTITCRASQTISTNVNWYQQKPGKAPKLLIYAASSLQSGVPSRFSGSGSGTDFTLTISSLQPEDFATFYCQQSYSAPLTFGEGTKV	binds

Please give the measured binding result for this binder: Fab1-1 (Fab, V domains shown) VH: EVQLVESGGGLVKPGGSLRLSCAASGVPFSDAWMNWVRQAPGKGLEWVGRIKSKKDGGTADYAAPVKGRFSISRDDSKKMLYLHMNSLKTEDTAVYYCTTEPSGYCSNGLCYTGNYWGQGTLVTVSS VL: QPVLTQSSSASASLGSSVKLTCTLSSGHITYIIAWHQQQPGKAPRYLMKLEDSGSYNKGSGVPDRFSGSSSGADRYLTISNLQFEDEADYYCETWDSYTRVFGGGTKLT
binds

Reference for the values: paper doi:10.1101/2024.05.01.590489
